Reference source: paper PMC4519192

- measured-on: Protein A, native (Sigma P3838) (Staphylococcus aureus, UniProt P38507 37-477)
- assay-protocol: MST; 25 C, in solution
- assay-conditions: protein: native; label: 5'-fluorescein

>  <binder>
PA#2/8 5'-fluorescein (structured_DNA) DNA: ATACCAGCTTATTCAATTAGCAACATGAGGGGGATAGAGGGGGTGGGTTCTCTCGGCTACAATCGTAATCAGTTAG

>  <Kd>
668 nM

$$$$
